Tested on: Escherichia coli TOP10;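 further: peptides expressed intracellularly from a pBAD plasmid library in pooled LB shake-flask culture, induced with 0.3% L-arabinose, DNA abundance read by NGS, three biological replicates, DESeq2 with apeglm shrinkage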
Assay: shrunken log2 fold change of peptide-encoding DNA abundance (4.5 h post-induction vs induction); higher = less antimicrobial activity (less host growth inhibition)
Settings: time post-induction: 4.5 h; library: site-saturation at positions 5, 18, 19, 20
Would you please tag the item True when its shrunken log2 fold change is 0.05 or above, and False when it is below?

RRIRSRPPRLPRPRPRPQMSPRP: False

## Task Say whether `RRIRDRPPRLPRPRPRPEFCPRP` shows shrunken log2 fold change of 0.05 or more.
## Result True

## Task Identify whether the reported shrunken log2 fold change of the following sequence is 0.05 or greater: `RRIRYRPPRLPRPRPRPIALPRP`
## Result False
